Target: human constitutive 20S proteasome (Homo sapiens, UniProt P25787+P60900)
Assay: Fluorogenic small peptide assay with purified 20S proteasome
Format: biochemical
Details: equimolar mixture of Suc-LLVY-AMC, Z-LLE-AMC, Boc-LRR-AMC; mean ± SD, n = 3
RESULT TYPE: EC200 (concentration at which degradation rate is enhanced 2-fold, 200%) (µM)
Numbers only here, please. The scale is µM.

# annotated cases, reported EC200 (concentration at which degradation rate is enhanced 2-fold, 200%) shown
>>> meas_value("O=C(CCn1c2ccccc2c2ccccc21)N(c1ccc(F)cc1)c1ccc(F)cc1")
1.6
>>> meas_value("O=C(Cn1ccc2ccc(Cl)cc21)N(c1ccc(F)cc1)c1ccc(F)cc1")
1.6
>>> meas_value("O=C(CCn1c(=O)oc2ccccc21)N(c1ccc(F)cc1)c1ccc(F)cc1")
1.3
>>> meas_value("O=C(Cn1c2ccccc2c2ccccc21)N(c1ccc(F)cc1)c1ccc(F)cc1")
3.8
>>> meas_value("O=C(CCn1c2ccccc2c2ccc(Cl)cc21)N(c1ccc(F)cc1)c1ccc(F)cc1")
0.9
>>> meas_value("O=C(CCn1c2ccccc2c2ccncc21)N(c1ccc(F)cc1)c1ccc(F)cc1")
3.8
>>> meas_value("O=C(Cn1c2ccccc2c2ccncc21)N(c1ccc(F)cc1)c1ccc(F)cc1")
2.0
>>> meas_value("O=C(CCn1ccc2ccccc21)N(c1ccc(F)cc1)c1ccc(F)cc1")
7.5
>>> meas_value("O=C(CN1CCOc2ccccc21)N(c1ccc(F)cc1)c1ccc(F)cc1")
8.0

Please find the next compound below.
Q: Provide measured EC200 (concentration at which degradation rate is enhanced 2-fold, 200%) value, entry: O=C(Cn1ccc2ccccc21)N(c1ccc(F)cc1)c1ccc(F)cc1
Result: 7.5

FYI, the data here is from paper PMC11225362.
